In this section we review reported inhibition zone (IZ) values for a set of compounds.
Tested on: Cladosporium cucumerinum
Assay: Antifungal activity against Cladosporium cucumerinum at 0.2 umol after 2 days
Format: functional

| compound | inhibition zone (IZ) |
| --- | --- |
| C=C[C@@]1(C)CC[C@H](/C(C)=C/C=C/C(C)(C)O)C[C@@H]1C(=C)C | 0 mm |
| C=C[C@@]1(C)CC[C@H](/C(C)=C/C[C@@H](OC(C)=O)C(C)(C)O)C[C@@H]1C(=C)C | 5 mm |
| C=C[C@@]1(C)CC[C@H](C2=CC[C@H](C(C)(C)O)OC2=O)C[C@@H]1C(=C)C [LOBATRIENOLIDE] | 9 mm |
| C=C[C@@]1(C)CC[C@H](C2=CC[C@H](C(C)(C)O)OC2)C[C@@H]1C(=C)C | 10 mm |
| C=C[C@@]1(C)CC[C@H](/C(C)=C/C[C@@H](O)C(C)(C)O)C[C@@H]1C(=C)C | 9 mm |
| C=C[C@@]1(C)CC[C@H](/C(=C/C[C@@H](O)C(C)(C)O)COC(C)=O)C[C@@H]1C(=C)C | 10 mm |
| C=C[C@@]1(C)CC[C@H](/C(=C/C[C@@H](OC(C)=O)C(C)(C)O)COC(C)=O)C[C@@H]1C(=C)C | 10 mm |
| C=C[C@@]1(C)CC[C@H](C2=CCC(O)C(C)(C)OC2)C[C@@H]1C(=C)C (stereo partly specified) | 10 mm |
| C=C[C@@]1(C)CC[C@H](C2=CC[C@H](C(C)(C)OC(C)=O)OC2)C[C@@H]1C(=C)C | 8 mm |
| COC1=C(C)C(=O)c2cc(=O)n(C)c(C)c2C1=O | 15 mm |
| C=C[C@@]1(C)CC[C@H](/C(C)=C/C[C@H]2OC2(C)C)C[C@@H]1C(=C)C | 0 mm |

Provenance of the data: ChEMBL document CHEMBL1150872
